Data origin: patent US11760984B2

Assay: Solubility in PBS determined by mass spectroscopy
Assay type: physicochemical
Details: aqueous buffer, 24 h incubation at room temperature, read-out: solubility: no detectable aggregation up to
Method: FIG. 15—The solubility of BRD7087 compound in PBS as determined by mass spectroscopy after 24 h of incubation at room temperature. Compounds Antipyrine and Clotrimazole were used as positive controls. FIG. 59. The solubility of BRD7087 compound in PBS as determined by Mass spectroscopy after 24 h of incubation at room temperature. Compounds Antipyrine and Clotrimazole have been used as the positive controls.
measure-name: solubility at 24 h

[
  {
    "structure-as-smiles": "COc1ccc(-c2ccc3c(c2)[C@H]2[C@H](CCN2Cc2ccncc2)[C@@H](CO)N3)cc1",
    "solubility at 24 h": "~75 µM"
  }
]

Proceed to the following item.
Query :: I would be grateful if you could share the reported solubility at 24 h for `OC[C@H]1Nc2ccc(-c3cccc(F)c3)cc2[C@H]2[C@@H]1CCN2Cc1ccncc1` .
Result :: ~75 µM
